// provenance: ChEMBL document CHEMBL3997794

- tested_system: Histone deacetylase 1 (Homo sapiens, UniProt Q13547)
- Sequence (Q13547 whole entry): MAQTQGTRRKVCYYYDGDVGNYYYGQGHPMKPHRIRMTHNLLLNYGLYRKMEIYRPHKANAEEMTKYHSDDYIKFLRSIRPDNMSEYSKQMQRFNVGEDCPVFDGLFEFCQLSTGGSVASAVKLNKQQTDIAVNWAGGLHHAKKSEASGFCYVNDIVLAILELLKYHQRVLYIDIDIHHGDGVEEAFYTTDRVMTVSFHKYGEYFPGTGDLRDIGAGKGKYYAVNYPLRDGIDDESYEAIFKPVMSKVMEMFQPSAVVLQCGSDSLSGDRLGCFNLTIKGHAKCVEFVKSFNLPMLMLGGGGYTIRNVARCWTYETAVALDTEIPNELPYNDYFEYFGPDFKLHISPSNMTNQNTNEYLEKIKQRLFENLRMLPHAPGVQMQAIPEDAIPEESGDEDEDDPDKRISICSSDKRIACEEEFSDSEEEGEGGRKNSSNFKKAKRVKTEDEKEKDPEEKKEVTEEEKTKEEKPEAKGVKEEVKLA
quantity: IC50

Hello, I would appreciate it if you could give IC50 for each entry below.
1. O=C(O)CC[C@H]1N=C(c2ccccc2)c2ccccc2NC1=O
2. O=C(CCCCN1C(=O)[C@H](CCC(=O)NO)N=C(c2ccccc2)c2ccccc21)NO
3. CC(C)C[C@@H]1N=C(c2ccccc2)c2ccccc2NC1=O
4. O=C(O)CCCCN1C(=O)CN=C(c2ccccc2)c2ccccc21
5. CC(C)(C)OC(=O)CC[C@@H]1N=C(c2ccccc2)c2ccccc2N(CCCCC(=O)O)C1=O
6. O=C(CCCCN1C(=O)[C@@H](CS)N=C(c2ccccc2)c2ccccc21)NO

> 30 µM
15 µM
> 30 µM
> 30 µM
> 30 µM
0.46 µM

* * *

Can you tell me IC50 for the items I'm about to list?
- tested_system: Protein deacetylase HDAC6 (Homo sapiens)
- Sequence (Q9UBN7 whole entry): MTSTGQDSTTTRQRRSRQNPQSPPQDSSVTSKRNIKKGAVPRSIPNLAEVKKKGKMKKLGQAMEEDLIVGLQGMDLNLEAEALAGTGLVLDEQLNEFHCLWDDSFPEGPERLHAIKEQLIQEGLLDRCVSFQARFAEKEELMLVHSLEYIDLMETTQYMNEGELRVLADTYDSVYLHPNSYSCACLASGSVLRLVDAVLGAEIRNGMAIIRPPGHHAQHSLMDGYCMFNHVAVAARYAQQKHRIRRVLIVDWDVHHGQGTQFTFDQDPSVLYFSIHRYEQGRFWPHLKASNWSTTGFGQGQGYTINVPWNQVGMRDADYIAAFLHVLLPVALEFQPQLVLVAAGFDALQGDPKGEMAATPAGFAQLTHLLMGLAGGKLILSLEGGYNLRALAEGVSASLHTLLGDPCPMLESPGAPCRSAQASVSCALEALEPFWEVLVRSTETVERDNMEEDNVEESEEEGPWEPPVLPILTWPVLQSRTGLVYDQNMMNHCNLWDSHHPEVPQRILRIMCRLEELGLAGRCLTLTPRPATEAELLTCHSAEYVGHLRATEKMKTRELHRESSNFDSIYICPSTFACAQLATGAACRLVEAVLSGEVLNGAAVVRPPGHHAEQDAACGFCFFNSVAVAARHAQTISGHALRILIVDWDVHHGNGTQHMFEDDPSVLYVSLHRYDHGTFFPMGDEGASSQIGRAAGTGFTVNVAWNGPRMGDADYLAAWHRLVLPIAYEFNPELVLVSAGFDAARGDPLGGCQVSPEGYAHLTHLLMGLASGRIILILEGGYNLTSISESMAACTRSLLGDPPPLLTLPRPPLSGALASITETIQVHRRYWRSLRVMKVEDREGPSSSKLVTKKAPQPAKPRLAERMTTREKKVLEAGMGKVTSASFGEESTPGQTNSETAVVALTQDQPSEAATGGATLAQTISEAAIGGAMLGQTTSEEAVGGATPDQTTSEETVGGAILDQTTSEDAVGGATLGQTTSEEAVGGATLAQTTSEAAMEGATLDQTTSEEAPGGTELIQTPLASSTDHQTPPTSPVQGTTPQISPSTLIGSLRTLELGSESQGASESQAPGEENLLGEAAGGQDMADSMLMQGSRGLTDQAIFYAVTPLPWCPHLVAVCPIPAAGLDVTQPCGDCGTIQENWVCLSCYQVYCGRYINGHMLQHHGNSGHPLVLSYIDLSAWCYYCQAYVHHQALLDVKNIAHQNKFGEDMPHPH
- method_description: Inhibition of human KDAC6 using FITC-labeled histone H4 acetylated peptide as substrate after 60 mins by fluorescence assay

{"columns": ["molecule", "tested_system", "recorded_value"],
 "data": [
  ["O=C(CC[C@@H]1N=C(c2ccccc2)c2ccccc2NC1=O)NC(c1ccccc1)(c1ccccc1)c1ccccc1", "Protein deacetylase HDAC6 (Homo sapiens)", "> 30 µM"],
  ["O=C(CCCCN1C(=O)[C@@H](CS)N=C(c2ccccc2)c2ccccc21)NO", "Protein deacetylase HDAC6 (Homo sapiens)", "0.58 µM"],
  ["O=C1CN=C(c2ccccc2)c2ccccc2N1 [RO-052921]", "Protein deacetylase HDAC6 (Homo sapiens)", "> 30 µM"]
]}

Hello, I would appreciate it if you could give IC50 for each entry below.
1. CC(C)(C)Oc1ccc(C[C@@H]2N=C(c3ccccc3)c3ccccc3N(CCCCC(=O)NO)C2=O)cc1
2. C[C@@H]1N=C(c2ccccc2)c2ccccc2NC1=O
3. CC(C)[C@@H]1N=C(c2ccccc2)c2ccccc2NC1=O
4. O=C(O)CCCCN1C(=O)[C@H](CC(=O)O)N=C(c2ccccc2)c2ccccc21
5. COC(=O)CCCCN1C(=O)[C@H](Cc2cc3ccccc3n2C(=O)OC(C)(C)C)N=C(c2ccccc2)c2ccccc21
6. O=C(CCCCN1C(=O)[C@H](Cc2ccccc2)N=C(c2ccccc2)c2ccccc21)NO

1: 2.87 µM; 2: > 30 µM; 3: > 30 µM; 4: > 30 µM; 5: > 30 µM; 6: 1.98 µM
